molecular target: Jak2 (UniProt O60674); assay: phosphorylation enrichment, bacterial display (enrichment ratio); higher = better substrate or ligand; peptides without Tyr show the background;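 further: 11-residue human phosphosite peptides and single-mutation variants displayed on the E. coli surface, counted by deep sequencing, each peptide's frequency after selection divided by its frequency in the unselected input library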;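 further: frequency after pTyr selection over input frequency; kinase dosed for 20-30% of maximal phosphorylation in three min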
Sequence (O60674 whole entry, looked up): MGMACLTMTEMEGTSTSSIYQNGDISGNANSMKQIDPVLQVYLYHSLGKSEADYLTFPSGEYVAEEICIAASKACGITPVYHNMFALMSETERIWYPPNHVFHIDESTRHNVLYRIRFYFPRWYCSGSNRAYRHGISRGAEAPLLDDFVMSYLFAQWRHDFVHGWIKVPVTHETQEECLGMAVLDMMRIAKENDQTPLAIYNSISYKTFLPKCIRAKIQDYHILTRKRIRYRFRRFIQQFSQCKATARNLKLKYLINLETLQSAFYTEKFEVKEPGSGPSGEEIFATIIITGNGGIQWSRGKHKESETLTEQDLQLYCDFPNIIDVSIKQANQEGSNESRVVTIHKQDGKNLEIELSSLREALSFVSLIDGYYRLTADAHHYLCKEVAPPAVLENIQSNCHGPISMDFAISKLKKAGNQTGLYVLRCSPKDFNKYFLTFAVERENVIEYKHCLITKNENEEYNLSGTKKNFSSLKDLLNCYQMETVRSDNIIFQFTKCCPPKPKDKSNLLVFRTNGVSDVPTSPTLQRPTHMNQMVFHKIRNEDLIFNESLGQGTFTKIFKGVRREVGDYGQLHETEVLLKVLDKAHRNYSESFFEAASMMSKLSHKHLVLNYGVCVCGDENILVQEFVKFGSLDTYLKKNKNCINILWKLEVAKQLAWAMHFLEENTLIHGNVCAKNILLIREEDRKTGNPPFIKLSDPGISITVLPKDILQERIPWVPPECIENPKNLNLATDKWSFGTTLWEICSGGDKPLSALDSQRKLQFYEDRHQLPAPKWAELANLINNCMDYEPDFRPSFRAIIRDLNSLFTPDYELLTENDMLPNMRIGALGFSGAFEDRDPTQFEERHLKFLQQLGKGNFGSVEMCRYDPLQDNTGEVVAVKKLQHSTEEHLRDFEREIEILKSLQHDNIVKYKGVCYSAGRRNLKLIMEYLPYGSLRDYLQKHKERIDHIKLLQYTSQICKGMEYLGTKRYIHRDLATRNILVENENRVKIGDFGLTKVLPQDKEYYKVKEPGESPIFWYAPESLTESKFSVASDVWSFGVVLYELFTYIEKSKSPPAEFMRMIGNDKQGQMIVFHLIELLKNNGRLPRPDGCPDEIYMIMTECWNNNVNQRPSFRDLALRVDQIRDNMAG
ASSAY METRIC: phosphorylation enrichment

RESIDUES | RECORDED RESULT
HDHFGYRQSVT [CD55_Y245_R240H_YF] | 0.536
VLRRVYVDFEG [KMT2B_Y1707] | 0.774
RRNVFYFSFLL [PTEN_Y177_Y174N_YF] | 1.69
SSTASYFKAPG [RFX2_Y108_E110K] | 0.53
SLLVVYPWTQR [HBB_Y36_R31S] | 0.804
PNRILYRDFRQ [MYH7_Y715_G716R] | 0.79
LQRVQCDLQKA [DSP_Y1512_Y1512C] | 1.43
PDGHEYIFVDP [PDGFRA_Y572_YF] | 0.73
MGRVKYGAFIN [GLB1_Y485_N484K_YF] | 0.528
PGNIVYSSLCG [BCOR_Y90] | 1.65
FDDGKYVFVVT [RPS6KA3_Y488_YF] | 1.46
LVMFISAIFGM [SCN1A_Y1684_Y1684S] | 1.77
NSIGNYFKPWF [DHCR24_Y299_YF] | 7.86
GIFKDYFRFNF [PLA2G2D_Y85_S80G_YF] | 3.79
SIKDKHVTALY [KCNH2_Y611_Y611H] | 0.43
HCEDGYPGGSD [CTNND1_Y221_Y217C] | 1.34
FKTPTYPFLLP [PLD2_Y578_YF] | 0.815
RGEKQYLAAPL [ALOX12_Y295] | 0.523
VSYDEYRYRSV [CFTR_Y515] | 0.71
LADKPYTFEFF [FXN_Y118_D122Y_YF] | 1.58
RIVEIYSRRLR [GCH1_Y175_Q180R] | 0.619
DQLVKYGVNPG [TMPO_Y127] | 0.479
NTYENYWPFYQ [GATM_Y103_K102N] | 5.55
KNEVLYDEENH [ARFGEF1_Y314_G316E] | 1.3
LNCIYYKDQTG [RS1_Y166_W163C] | 1.42
PMQLPYDSRWE [PDGFRA_Y582] | 0.821
LERFIYNRQEF [HLA-DPB1_Y59_E62Q_YF] | 0.629
PPPELYFVKVD [TERT_Y707] | 2.84
DWQQEYVLNES [TGM1_Y267_R264Q] | 0.957

----------
biological target: Jak2 (UniProt O60674); assay: phosphorylation enrichment, bacterial display (enrichment ratio); higher = better substrate or ligand; peptides without Tyr show the background
Classification field: enter 1 for phosphorylation enrichment values not below 0.7, 0 for values below it.

RESIDUES | TARGET SYSTEM | LABEL VALUE
STSYDYCRVPM [BST2_Y8] | Jak2 (UniProt O60674) | 1
SLMGCYNLTFM [HS6ST3_Y323_V320M] | Jak2 (UniProt O60674) | 1
RDHFGYRQSVT [CD55_Y245_YF] | Jak2 (UniProt O60674) | 0
LTSKPYAFTAQ [NDUFS1_Y236_R241Q] | Jak2 (UniProt O60674) | 0
EKKKYYDTKIE [CASP5_Y104] | Jak2 (UniProt O60674) | 1
ELRGTYTSLQQ [KIF3C_Y574] | Jak2 (UniProt O60674) | 1
YRQNGYIPGSN [PCDHGA1_Y895_V894G] | Jak2 (UniProt O60674) | 0
IGVGSYSVCKR [RPS6KA3_Y433] | Jak2 (UniProt O60674) | 0
GYRVCYTPDSR [PTPRF_Y451_Y450C] | Jak2 (UniProt O60674) | 1
CRVEPYGENFN [APOA4_Y310_R305C] | Jak2 (UniProt O60674) | 1
LYSGDYYRIQG [DDR2_Y740] | Jak2 (UniProt O60674) | 1
QRRNVYYYSYL [PTEN_Y176_Y174N] | Jak2 (UniProt O60674) | 1
ATKNDYWAMLA [WWOX_Y287_P282A] | Jak2 (UniProt O60674) | 1
PTYEHYANSTQ [SLC12A3_Y70] | Jak2 (UniProt O60674) | 1
TLGPFYPSRLF [CRYAA_Y18] | Jak2 (UniProt O60674) | 0
KYVVVYFRETD [IL17RB_Y447_I451T] | Jak2 (UniProt O60674) | 1
KLFFIYTPGTT [SLC27A4_Y245_S247P_YF] | Jak2 (UniProt O60674) | 1
FSEVRYMKEPF [HIPK4_Y170_V171M_YF] | Jak2 (UniProt O60674) | 1
PADCRYFTFPQ [GAMT_Y222_A224T_YF] | Jak2 (UniProt O60674) | 1
NRDNTYNRVSE [FGA_Y127] | Jak2 (UniProt O60674) | 0
SDMGQYQCLVF [AXL_Y115_T112M] | Jak2 (UniProt O60674) | 1
VKRNRYKDILP [PTPN12_Y64_K61R] | Jak2 (UniProt O60674) | 0
EIHTQYEAMAS [GFAP_Y242_R239H] | Jak2 (UniProt O60674) | 0
FFVVEYRNQKP [MUC17_Y4332_D4334N_YF] | Jak2 (UniProt O60674) | 1
NWGSPYKSDGC [ZNF347_Y261_N264D] | Jak2 (UniProt O60674) | 0
KSLFHHRQYSA [CPS1_Y1491_Y1491H] | Jak2 (UniProt O60674) | 0
IRTIDYRYTVC [IDS_Y497_W502C] | Jak2 (UniProt O60674) | 1
CTLSVYRQLHN [LUZP1_Y1036] | Jak2 (UniProt O60674) | 1
